Here, each record is paired with measured MIC data.
test system: Escherichia coli; assay: In vitro synergistic activity against Escherichia coli ATCC 35218 (TEM-1); type: functional

Examples from the recorded data:
MOLECULE | MIC
CC(C)(O/N=C(\C(=O)N[C@@H]1C(=O)N2C(C(=O)[O-])=C(C[n+]3ccccc3)CS[C@H]12)c1csc(N)n1)C(=O)O | < 0.06 µg/mL
CCN1CCN(C(=O)N[C@@H](C(=O)N[C@@H]2C(=O)N3[C@@H]2SC(C)(C)[C@@H]3C(=O)O)c2ccccc2)C(=O)C1=O | > 64 µg/mL
C[C@]1(COC(=O)Cc2ccc(O)c(O)c2)[C@H](C(=O)[O-])N2C(=O)/C(=C/c3ccccn3)C2S1(=O)=O.[Na+] (stereo partly specified) | > 64 µg/mL
CCN1CCN(C(=O)NC(C(=O)N[C@@H]2C(=O)N3[C@@H]2SC(C)(C)[C@@H]3C(=O)[O-])c2ccccc2)C(=O)C1=O.C[C@]1(Cn2ccnn2)C(C(=O)[O-])N2C(=O)C[C@H]2S1(=O)=O.[Na+].[Na+] (stereo partly specified) | 1 µg/mL
C[C@@H](O)[C@H]1C(=O)N2C(C(=O)O)=C(SCCNC=N)C[C@H]12 [IMIPENEM ANHYDROUS] | < 0.06 µg/mL

MIC reported for this molecule CCN1CCN(C(=O)NC(C(=O)N[C@@H]2C(=O)N3[C@@H]2SC(C)(C)[C@@H]3C(=O)[O-])c2ccccc2)C(=O)C1=O.C[C@]1(COC(=O)Cc2ccc(O)c(O)c2)[C@H](C(=O)[O-])N2C(=O)/C(=C/c3ccccn3)C2S1(=O)=O.[Na+].[Na+] (stereo partly specified) : 1 µg/mL
